Values compiled from ChEMBL document CHEMBL2390816.

Biological target: Glycogen synthase kinase-3 beta (Homo sapiens)
Sequence (P49841 whole entry): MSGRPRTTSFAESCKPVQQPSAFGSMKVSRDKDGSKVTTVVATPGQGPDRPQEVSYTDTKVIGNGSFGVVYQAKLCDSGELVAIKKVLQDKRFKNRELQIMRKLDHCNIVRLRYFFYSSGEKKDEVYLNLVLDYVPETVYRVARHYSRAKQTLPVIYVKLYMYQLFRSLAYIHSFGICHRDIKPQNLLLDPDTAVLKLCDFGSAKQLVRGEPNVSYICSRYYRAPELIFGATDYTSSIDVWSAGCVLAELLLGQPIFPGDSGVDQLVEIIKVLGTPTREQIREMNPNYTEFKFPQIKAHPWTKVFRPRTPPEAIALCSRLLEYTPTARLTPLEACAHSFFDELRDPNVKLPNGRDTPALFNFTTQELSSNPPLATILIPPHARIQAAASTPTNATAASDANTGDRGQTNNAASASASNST
Assay: Inhibition of human recombinant GSK3beta by FRET assay
pIC50: −log10 of the molar value.

Structure	pIC50
c1ccc(-c2ccc(CSc3nnc(-c4ccncc4)o3)cc2)cc1	7.08
COc1ccc(-c2ccc(CSc3nnc(-c4ccc5c(c4)OCO5)o3)cc2)cc1	7.12
Fc1cc(F)cc(-c2ccc(CSc3nnc(-c4ccc5c(c4)OCCO5)o3)cc2)c1	6.02
O=[N+]([O-])c1ccccc1-c1ccc(CSc2nnc(-c3ccc4c(c3)OCCO4)o2)cc1	7.05
O=[N+]([O-])c1cccc(-c2ccc(CSc3nnc(-c4ccc5c(c4)OCCO5)o3)cc2)c1	6.79
c1ccc(-c2ccc(CSc3nnc(-c4ccc5c(c4)OCCO5)o3)cc2)cc1	6.63
N#Cc1cccc(-c2ccc(CSc3nnc(-c4ccncc4)o3)cc2)c1	7.08
O=[N+]([O-])c1ccccc1-c1ccc(CSc2nnc(-c3ccncc3)o2)cc1	6.79
CC(=O)Nc1cc(-c2nnc(SCc3cccc(C#N)c3)o2)ccn1	7.72

###

Target: Aurora kinase A (Homo sapiens, UniProt O14965)
Sequence (O14965 whole entry): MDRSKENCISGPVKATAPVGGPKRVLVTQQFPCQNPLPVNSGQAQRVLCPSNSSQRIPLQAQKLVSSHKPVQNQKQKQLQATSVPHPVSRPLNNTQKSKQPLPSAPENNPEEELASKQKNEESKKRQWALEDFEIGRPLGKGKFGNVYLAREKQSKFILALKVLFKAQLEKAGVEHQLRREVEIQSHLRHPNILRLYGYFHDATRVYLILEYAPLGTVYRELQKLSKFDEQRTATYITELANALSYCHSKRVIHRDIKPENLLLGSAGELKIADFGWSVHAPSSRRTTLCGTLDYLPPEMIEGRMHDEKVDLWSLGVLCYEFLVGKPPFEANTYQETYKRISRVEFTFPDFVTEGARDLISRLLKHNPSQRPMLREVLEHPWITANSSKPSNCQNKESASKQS
Assay: Inhibition of human recombinant AURKA by FRET assay
pIC50: −log10 of the molar value.

Structure	Tested Target	pIC50
c1ccc(-c2ccc(CSc3nnc(-c4ccncc4)o3)cc2)cc1	Aurora kinase A (Homo sapiens, UniProt O14965)	< 4.00
CC(=O)Nc1cc(-c2nnc(SCc3ccc(-c4ccccc4C#N)cc3)o2)ccn1	Aurora kinase A (Homo sapiens, UniProt O14965)	< 4.00
COc1ccc(-c2ccc(CSc3nnc(-c4ccc5c(c4)OCCO5)o3)cc2)cc1	Aurora kinase A (Homo sapiens, UniProt O14965)	< 4.00
COc1ccc(-c2ccc(CSc3nnc(-c4ccc5c(c4)OCCO5)o3)cc2)c(C#N)c1	Aurora kinase A (Homo sapiens, UniProt O14965)	< 4.00
O=[N+]([O-])c1cccc(-c2ccc(CSc3nnc(-c4ccc5c(c4)OCCO5)o3)cc2)c1	Aurora kinase A (Homo sapiens, UniProt O14965)	< 4.00
CC(=O)Nc1cc(-c2nnc(SCc3ccccc3)o2)ccn1	Aurora kinase A (Homo sapiens, UniProt O14965)	4.22
N#Cc1cccc(-c2ccc(CSc3nnc(-c4ccc5c(c4)OCO5)o3)cc2)c1	Aurora kinase A (Homo sapiens, UniProt O14965)	< 4.00
O=[N+]([O-])c1ccccc1-c1ccc(CSc2nnc(-c3ccc4c(c3)OCO4)o2)cc1	Aurora kinase A (Homo sapiens, UniProt O14965)	< 4.00
COc1ccc(-c2ccc(CSc3nnc(-c4ccc5c(c4)OCO5)o3)cc2)cc1	Aurora kinase A (Homo sapiens, UniProt O14965)	4.40
N#Cc1ccc(-c2ccc(CSc3nnc(-c4ccc5c(c4)OCCO5)o3)cc2)cc1	Aurora kinase A (Homo sapiens, UniProt O14965)	4.30
O=[N+]([O-])c1cccc(-c2ccc(CSc3nnc(-c4ccc5c(c4)OCO5)o3)cc2)c1	Aurora kinase A (Homo sapiens, UniProt O14965)	< 4.00
O=[N+]([O-])c1ccccc1-c1ccc(CSc2nnc(-c3ccc4c(c3)OCCO4)o2)cc1	Aurora kinase A (Homo sapiens, UniProt O14965)	< 4.00
